# target: HSA (Homo sapiens)
# Construct: purchased Chromtech (Cheshire, UK)
# Sequence (P02768 25-609): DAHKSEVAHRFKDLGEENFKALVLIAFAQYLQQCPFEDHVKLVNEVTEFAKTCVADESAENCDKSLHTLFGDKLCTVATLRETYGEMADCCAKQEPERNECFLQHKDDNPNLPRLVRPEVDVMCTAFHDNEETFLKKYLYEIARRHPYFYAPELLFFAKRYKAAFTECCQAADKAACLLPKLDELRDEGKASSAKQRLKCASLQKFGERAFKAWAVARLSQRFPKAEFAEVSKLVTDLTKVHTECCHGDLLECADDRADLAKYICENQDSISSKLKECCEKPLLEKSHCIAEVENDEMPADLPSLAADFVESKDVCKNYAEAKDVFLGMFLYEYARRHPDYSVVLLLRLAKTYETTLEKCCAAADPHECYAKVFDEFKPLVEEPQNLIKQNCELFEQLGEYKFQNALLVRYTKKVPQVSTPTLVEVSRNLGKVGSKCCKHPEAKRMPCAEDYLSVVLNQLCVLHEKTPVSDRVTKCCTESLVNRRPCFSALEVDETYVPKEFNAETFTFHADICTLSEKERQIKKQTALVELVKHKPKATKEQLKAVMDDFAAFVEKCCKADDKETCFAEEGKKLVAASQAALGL
# experiment: HSA binding by immobilised HSA HPLC column
# Assay type: in vitro ADME
# condition info: HSA column, typical data
Task for the reader: assign each of the following compounds its reported % HSA measured.
One number for each entry, in %.

The examples below pair each entry with its known result.
1) COC(=O)C1=C(C)NC(C)=C(C(=O)OCCN(C)Cc2ccccc2)C1c1cccc([N+](=O)[O-])c1 (stereo not drawn) [Nicardipine]
97.0
2) CCCC1O[C@@H]2C[C@H]3[C@@H]4CCC5=CC(=O)C=C[C@]5(C)[C@H]4[C@@H](O)C[C@]3(C)[C@]2(C(=O)CO)O1 (stereo partly drawn) [Budesonide]
84.2
3) CN1C(C(=O)Nc2ccccn2)=C(O)c2ccccc2S1(=O)=O [Piroxicam]
93.6

Hi there! I need % HSA measured for each item below, if you can.
1. O=C1CN=C(c2ccccn2)c2cc(Br)ccc2N1 [Bromazepam]
2. NC(=O)N1c2ccccc2C=Cc2ccccc21 [Carbamazepine]
3. CNC(=C[N+](=O)[O-])NCCSCc1csc(CN(C)C)n1 [Nizatidine]

1: 71.2; 2: 76.8; 3: 31.1
